Where do these numbers come from? They come from PubChem BioAssay (NCI).

Test system: SNB-78 CNS
Experiment: NCI tumour cell line growth inhibition, 48 h
TGI by entry:

INSERT INTO assay_data (compound, reported_value) VALUES
  ('Cc1cn(C2CC(OC3CCCCO3)C(CO)O2)c(=O)[nH]c1=O (centres undefined)', '> 100 µM'),
  ('COC(c1ccccc1)C(c1ccccc1)N1CCOCC1 (centres undefined)', '> 100 µM');

Given the entry O=C1C(=O)c2cc([N+](=O)[O-])ccc2-c2ccc([N+](=O)[O-])cc21 , report its measured TGI.
2.66 µM

---

Test system: PC-3 prostate
Test: NCI tumour cell line growth inhibition, 48 h; in the data active = GI50 below about 0.43 µM; inactive = the rest
Where a SMILES comes first, the peptide text is derived from it. [ ]: non-standard residue; d: D form. The star is where a group is joined. Dolaproine = CO[C@@H]([C@@H]1CCCN1)[C@@H](C)C(=O)O; Dil = CC[C@H](C)[C@H](NC)[C@@H](CC(=O)O)OC; X2 = C[C@@H](N*)[C@@H](O)c1ccccc1; NMeV = CN[C@H](C(=O)O)C(C)C
Respond only with the outcome that fits, drawn from y = active, n = inactive

Answered examples (2):
INSERT INTO results (compound, discrete_label) VALUES
  ('O=C(Nc1ccc2[nH]c3ccccc3c2c1)c1ccccc1Cl', 'n'),
  ('C[C@]12CC[C@@H]3c4ccc(O)cc4CC[C@H]3[C@@H]1CC[C@@H]2NS(=O)(=O)c1ccc(Cl)cc1', 'n');

Recorded test outcome, item CC[C@H](C)[C@@H]([C@@H](CC(=O)N1CCC[C@H]1[C@H](OC)[C@@H](C)C(=O)N[C@H](C)[C@@H](O)c1ccccc1)OC)N(C)C(=O)[C@@H](NC(=O)[C@@H](NC)C(C)C)C(C)C (H-[NMeV]V[Dil][Dolaproine]-X2)
y
